# tested-on: Melanocortin receptor 4 (Homo sapiens, UniProt P32245)
# Sequence (P32245 whole entry): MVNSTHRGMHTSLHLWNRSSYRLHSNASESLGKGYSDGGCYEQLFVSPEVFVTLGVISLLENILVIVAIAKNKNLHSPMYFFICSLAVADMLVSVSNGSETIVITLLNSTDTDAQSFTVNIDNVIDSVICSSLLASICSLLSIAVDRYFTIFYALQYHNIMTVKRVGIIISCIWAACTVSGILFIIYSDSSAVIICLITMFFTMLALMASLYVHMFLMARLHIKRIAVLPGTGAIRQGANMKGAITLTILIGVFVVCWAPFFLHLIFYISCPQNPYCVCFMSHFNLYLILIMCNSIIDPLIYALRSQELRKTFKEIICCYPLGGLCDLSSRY
# test-name: Effective concentration against hMC4R using HEK293 cells was determined by measuring cAMP accumulation
# Type: functional, cell-based
Square brackets hold non-standard residues; d marks the D form. Peptide text beside a SMILES is read from it. * marks the point of attachment. Phe(3-CF3) = N[C@@H](Cc1cccc(C(F)(F)F)c1)C(=O)O; Phe(4-Br) = N[C@@H](Cc1ccc(Br)cc1)C(=O)O; Phe(4-Cl) = N[C@@H](Cc1ccc(Cl)cc1)C(=O)O; Phe(4-Me) = Cc1ccc(C[C@H](N)C(=O)O)cc1; Butyryl = CCCC(=O)*
recorded-endpoint: pEC50
// scale note: pEC50 = -log10(conc_M); give the bare number

{"compound": "CCCC(=O)N[C@@H](Cc1cnc[nH]1)C(=O)N[C@@H](Cc1ccc(C)cc1)C(=O)N[C@@H](CCCNC(=N)N)C(=O)N[C@@H](Cc1c[nH]c2ccccc12)C(=O)NCC(N)=O (Butyryl-H[Phe(4-Me)]RWG-NH2)", "pEC50": 7.11}
{"compound": "CCCC(=O)N[C@@H](Cc1c[nH]cn1)C(=O)N[C@H](Cc1cccc2ccccc12)C(=O)N[C@@H](CCCN=C(N)N)C(=O)N[C@@H](Cc1c[nH]c2ccccc12)C(=O)NCC(N)=O", "pEC50": 7.19}
{"compound": "CCCC(=O)N[C@@H](Cc1c[nH]cn1)C(=O)N[C@@H](Cc1ccc(Br)cc1)C(=O)N[C@@H](CCCN=C(N)N)C(=O)N[C@@H](Cc1c[nH]c2ccccc12)C(=O)NCC(N)=O (Butyryl-H[Phe(4-Br)]RWG-NH2)", "pEC50": 7.89}
{"compound": "CCCC(=O)N[C@@H](Cc1cnc[nH]1)C(=O)N[C@@H](Cc1cccc(C(F)(F)F)c1)C(=O)N[C@@H](CCCNC(=N)N)C(=O)N[C@@H](Cc1c[nH]c2ccccc12)C(=O)NCC(N)=O (Butyryl-H[Phe(3-CF3)]RWG-NH2)", "pEC50": 7.35}

Bench note, Melanocortin receptor 4 (Homo sapiens, UniProt P32245): entry CCCC(=O)N[C@@H](Cc1cnc[nH]1)C(=O)N[C@H](Cc1ccccc1)C(=O)N[C@@H](CCCNC(=N)N)C(=O)N[C@@H](Cc1csc2ccccc12)C(=O)NCC(N)=O , its pEC50 = 7.00

Bench note, Melanocortin receptor 4 (Homo sapiens, UniProt P32245): entry CCCC(=O)N[C@@H](Cc1cnc[nH]1)C(=O)N[C@@H](Cc1ccc(Cl)cc1)C(=O)N[C@@H](CCCNC(=N)N)C(=O)N[C@@H](Cc1c[nH]c2ccccc12)C(=O)NCC(N)=O (Butyryl-H[Phe(4-Cl)]RWG-NH2) , its pEC50 = 7.70
